Recorded pIC50 values for a group of sequences are listed next.
Molecular target: HLA-DRB1*0301 (DR3) (Homo sapiens, UniProt P01903+P01911, A100K/A102G/A103R/A169T/F55Y/I96L/K41T/L162R/M171V/P40S/Q125H/Q178H/Q39Y/R42S/S66N/T106N/T262R/W38E/Y61H)
Construct: endogenous in cells; host or cells: MAT
Sequence (P01903 26-254 partner, other chains not shown): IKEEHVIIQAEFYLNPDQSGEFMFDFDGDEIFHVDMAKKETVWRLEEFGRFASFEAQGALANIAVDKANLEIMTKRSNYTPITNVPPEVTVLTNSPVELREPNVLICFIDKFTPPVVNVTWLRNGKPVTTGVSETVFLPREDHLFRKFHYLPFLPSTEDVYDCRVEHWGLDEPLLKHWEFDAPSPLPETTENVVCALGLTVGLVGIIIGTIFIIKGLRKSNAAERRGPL
Assay: purified HLA class II binding assay, DRB1*0301 (DR3), pH 4.5
pIC50: −log10 of the molar value. No end group written: not given here.
Measurement label: pIC50

>>> val("QKQITKIQNFRVYYR [Peptide 27.0377]")
"< 4.70"
>>> val("QHLLQLTVWGIKQLQ [Peptide 27.0297]")
"< 4.70"
>>> val("HSNWRAMASDFNLPP [Peptide 27.0364]")
"< 4.70"
